Biological target: second bromodomain of Brd2 (BRD2(2)) (Homo sapiens)
Construct: made in house; host or cells: E. coli BL21 (DE3)
Sequence (P25440 344-453 limits assumed): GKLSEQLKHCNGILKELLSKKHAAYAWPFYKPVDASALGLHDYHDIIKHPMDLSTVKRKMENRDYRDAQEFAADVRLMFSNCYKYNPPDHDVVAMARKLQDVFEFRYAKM
Assay: Inhibition of tetra-acetylated histone H4 binding to Brd2 bromodomain 2 (TR-FRET)
Parameters: key: Active: Compounds with an IC50 value less than 30 μM were deemed to be active.; Not Active: Compounds with an IC50 value less than 30 μM were deemed to be active
Details: tetra-acetylated histone H4 peptide, active = IC50 <30 μM
MEASURE NAME: FRET activity (IC50 <30 μM) BRD2(2)

Solved entries:
SMILES STRING	FRET activity (IC50 <30 μM) BRD2(2)
Cc1noc(C)c1-c1cc(Nc2ccccc2)c(=O)n(Cc2ccccc2)c1	Active
Cc1noc(C)c1-c1ccc(=O)n(Cc2ccccc2)c1Cl	Active
Cc1noc(C)c1-c1ccc(=O)n(Cc2cc(F)c(F)c(F)c2)c1	Active
Cc1noc(C)c1-c1ccc(=O)n(Cc2ccc(CN(C)C)cc2)c1	Active

q: Given `Cc1noc(C)c1-c1ccc(=O)n(Cc2ccc(F)c(Cl)c2)c1` , state its recorded FRET activity (IC50 <30 μM) BRD2(2).
a: Active

----------
Molecular target: Brd4 bromodomain 1 (BRD4(1)) (Homo sapiens)
Construct: Illustrative results with the first bromodomain of Brd4; made in house; host or cells: E. coli BL21 (DE3)
Experiment: Inhibition of tetra-acetylated histone H4 binding to Brd4 bromodomain 1 (TR-FRET)
Design: key: Active: Compounds with an IC50 value less than 30 μM were deemed to be active.; Not Active: Compounds with an IC50 value less than 30 μM were deemed to be active
Conditions: tetra-acetylated histone H4 peptide, active = IC50 <30 μM
Counter-ions that a name gives are not always drawn.
MEASURE NAME: FRET activity (IC50 <30 μM) BRD4(1)

Take a look at these entries with their results.
MOLECULE	VAL
Cc1noc(C)c1-c1cc(CN)c(=O)n(Cc2ccccc2)c1	Not Active
Cc1onc(CO)c1-c1ccc(=O)n(Cc2ccc(Cl)cc2)c1	Active
Cc1noc(C)c1-c1cc(Nc2cccnn2)c(=O)n(Cc2ccccc2)c1	Active
Cc1ccccc1Cn1nc(-c2c(C)noc2C)ccc1=O	Active
Cc1ccc(Cn2nc(-c3c(C)noc3C)ccc2=O)cc1	Active

Dear colleague, could you send me FRET activity (IC50 <30 μM) BRD4(1) for each of the items below? Thanks.
1. Cc1noc(C)c1-c1cc(N2CCNCC2)c(=O)n(Cc2ccccc2)c1 [Example 161, Hydrochloride]
2. Cc1cc(=O)n(Cc2ccccc2)cc1-c1c(C)noc1C
3. Cc1cccc(Cn2cc(-c3c(C)noc3C)ccc2=O)n1
4. Cc1noc(C)c1-c1cc(N)c(=O)n(Cc2cccc3ncccc23)c1

a:
Not Active
Active
Active
Active

For every listed record, write down its FRET activity (IC50 <30 μM) BRD4(1).
1. Cc1noc(C)c1-c1ccc(=O)n(Cc2ccc(OC(F)(F)F)cc2)c1
2. Cc1noc(C)c1-c1cc(C#N)c(=O)n(Cc2ccccc2)c1
3. Cc1noc(C)c1-c1ccc(=O)n([C@H](C)c2ccccc2)n1
4. Cc1noc(C)c1-c1ccc(=O)n(CC2CCC2)c1
5. Cc1onc(C(=O)O)c1-c1ccc(=O)n(Cc2ccc(Cl)cc2)c1

a:
["Active", "Active", "Active", "Active", "Not Active"]

Go through the items and report each one's FRET activity (IC50 <30 μM) BRD4(1).
1. Cc1noc(C)c1-c1cc(O)c(=O)n(Cc2ccccc2)c1
2. Cc1noc(C)c1-c1cc(Nc2cccnc2)c(=O)n(Cc2ccccc2)n1

a:
Active
Active

For each listed entry, give its FRET activity (IC50 <30 μM) BRD4(1).
1. Cc1noc(C)c1-c1ccc(=O)n(Cc2ccccc2Cl)c1
2. Cc1noc(C)c1Nc1cc(-c2c(C)noc2C)cn(Cc2ccccc2)c1=O
3. Cc1noc(C)c1-c1cc(N)c(=O)n(Cc2ccc(C(F)(F)F)cc2)c1

a:
1: Active; 2: Active; 3: Active

State recorded FRET activity (IC50 <30 μM) BRD4(1) for all listed molecules.
1. Cc1nnc(C)n1-c1ccc(=O)n(Cc2ccc(Cl)cc2)c1
2. Cc1noc(C)c1-c1cc(N)c(=O)n(Cc2ccc(N3CCC3)cc2)c1
3. Cc1noc(C)c1-c1cc(N)c(=O)n(Cc2ccc(Cl)c(Cl)c2)c1
4. Cc1noc(C)c1-c1cc(N)c(=O)n(Cc2ncccc2Cl)c1
5. Cc1noc(C)c1-c1ccc(=O)n(Cc2ccc(Cl)c(F)c2)c1
6. Cc1noc(C)c1-c1cc(N)c(=O)n(Cc2ccc(Cl)c(F)c2)c1
7. COc1ccc(Oc2ccc(=O)n(Cc3ccccc3)n2)cc1OC
8. Cc1noc(C)c1-c1ccc(=O)n(Cc2ccc(F)cc2Cl)c1

a:
1: Not Active; 2: Active; 3: Active; 4: Active; 5: Active; 6: Active; 7: Not Active; 8: Active

For each of the molecules below, state FRET activity (IC50 <30 μM) BRD4(1).
1. Cc1noc(C)c1-c1cc(Nc2cnccn2)c(=O)n(Cc2ccccc2)c1
2. Cc1noc(C)c1-c1cc(C)c(=O)n(Cc2ccccc2F)n1
3. Cc1noc(C)c1-c1cc(N)c(=O)n(Cc2ccc(Cl)s2)c1
4. Cc1noc(C)c1-c1cc(C2CC2)c(=O)n(Cc2ccccc2)c1
5. Cc1noc(C)c1-c1nn(Cc2ccccc2)c(=O)c2ccccc12
6. COc1cc(-c2nn(Cc3ccccc3)c(=O)c3ccccc23)ccc1O
7. Cc1noc(C)c1-c1cc(N)c(=O)n(Cc2ccc(Cl)cn2)c1
8. Cc1onc(N)c1-c1ccc(=O)n(Cc2ccccc2)c1

a:
Active
Active
Active
Active
Not Active
Active
Active
Active

Fill in FRET activity (IC50 <30 μM) BRD4(1) for each of the 3 molecules listed.
1. Cc1noc(C)c1-c1ccc(=O)n(CC2CCNCC2)c1
2. Cc1noc(C)c1-c1ccc(=O)n(CCOc2ccccc2)c1
3. COc1ccc(-c2cn(Cc3ccccc3)c(=O)c3ccccc23)cc1OC

a:
1. Active
2. Active
3. Active

----------
Molecular target: Brd4 bromodomain 1 (BRD4(1)) (Homo sapiens)
Construct: Illustrative results with the first bromodomain of Brd4; made in house; host or cells: E. coli BL21 (DE3)
Assay: Inhibition of tetra-acetylated histone H4 binding to Brd4 bromodomain 1 (TR-FRET)
Design: key: Active: Compounds with an IC50 value less than 30 μM were deemed to be active.; Not Active: Compounds with an IC50 value less than 30 μM were deemed to be active
Conditions: tetra-acetylated histone H4 peptide, active = IC50 <30 μM
Procedure: Proteins were cloned and overexpressed with a N-terminal 6×His tag, then purified by nickel affinity followed by size exclusion chromatography. […] Binding of tetra-acetylated histone H4 and BET bromodomains was confirmed by a Time Resolved Fluorescence Resonance Energy Transfer (TR-FRET) method. […] After a 2-h incubation at room temperature, the fluorescence by FRET was measured at 665 and 620 nm by a SynergyH4 plate reader (Biotek). […] IC50 values were determined from a dose response curve.
MEASURE NAME: FRET activity (IC50 <30 μM) BRD4(1)

Some compounds with known FRET activity (IC50 <30 μM) BRD4(1) results, for comparison:
SMILES STRING	TGT	FRET activity (IC50 <30 μM) BRD4(1)
Cc1noc(C)c1-c1ccc(=O)n(Cc2ccccc2OC(F)(F)F)n1	Brd4 bromodomain 1 (BRD4(1)) (Homo sapiens)	Active
Cc1noc(C)c1-c1cn(Cc2ccccc2)c(=O)cn1	Brd4 bromodomain 1 (BRD4(1)) (Homo sapiens)	Active
Cc1noc(C)c1-c1ccc(=O)n(Cc2cccc(F)c2)c1	Brd4 bromodomain 1 (BRD4(1)) (Homo sapiens)	Active
Cc1noc(C)c1-c1cc(N)c(=O)n(Cc2nccs2)c1	Brd4 bromodomain 1 (BRD4(1)) (Homo sapiens)	Active
Cc1noc(C)c1-c1ccc(=O)n(S(=O)(=O)c2ccc(Cl)cc2)c1	Brd4 bromodomain 1 (BRD4(1)) (Homo sapiens)	Active
Cc1noc(C)c1-c1ccc(=O)n(Cc2ccc(CN(C)C)cc2)c1	Brd4 bromodomain 1 (BRD4(1)) (Homo sapiens)	Active

Okay, here is my list. What is FRET activity (IC50 <30 μM) BRD4(1) for each of these?
1. COc1ccc(Cn2nc(-c3cc(OC)c(OC)c(OC)c3)ccc2=O)cc1
2. COc1cccc(Cn2nc(-c3cc(OC)c(OC)c(OC)c3)ccc2=O)c1

a:
["Active", "Active"]

q: Which FRET activity (IC50 <30 μM) BRD4(1) reading was recorded for the compound `Cc1noc(C)c1-c1ccc(=O)n(CC2CCC2)n1` ?
a: Active

----------
Molecular target: Brd4 bromodomain 1 (BRD4(1)) (Homo sapiens, UniProt O60885)
Construct: Illustrative results with the first bromodomain of Brd4; made in house; host or cells: E. coli BL21 (DE3)
Assay: Inhibition of tetra-acetylated histone H4 binding to Brd4 bromodomain 1 (TR-FRET)
Design: key: Active: Compounds with an IC50 value less than 30 μM were deemed to be active.; Not Active: Compounds with an IC50 value less than 30 μM were deemed to be active
Conditions: tetra-acetylated histone H4 peptide, active = IC50 <30 μM
MEASURE NAME: FRET activity (IC50 <30 μM) BRD4(1)

// below: answered molecules
MOLECULE	FRET activity (IC50 <30 μM) BRD4(1)
Cc1noc(C)c1-c1cn(Cc2ccccc2)c(=O)c2ncccc12	Active
Cc1oncc1-c1cc(C)c(=O)n(Cc2ccccc2)n1	Not Active
Cc1noc(C)c1-c1ccc(=O)n(Cc2ccc3nccnc3c2)c1	Active
COc1ccc(Cn2cc(-c3c(C)noc3C)ccc2=O)cc1OC	Active

Give FRET activity (IC50 <30 μM) BRD4(1) for all molecules that follow.
1. Cc1noc(N)c1-c1ccc(=O)n(Cc2ccccc2)c1
2. Cc1noc(C)c1-c1ccc(=O)n(Cc2cccc3cccnc23)c1
3. Cc1noc(C)c1-c1ccc(=O)n(C(C)c2ccccc2)n1 (centres unmarked)
4. COc1cc(=O)n(Cc2ccccc2)cc1-c1c(C)noc1C
5. Cc1noc(C)c1-c1cc(Nc2ccc(F)cc2)c(=O)n(Cc2ccccc2)c1
6. O=c1ccc(-c2cnsc2)cn1Cc1ccccc1
7. COc1cc(-c2ccc(=O)n(Cc3ccc(C#N)cc3)n2)cc(OC)c1OC
8. Cc1nscc1-c1ccc(=O)n(Cc2ccccc2)c1

a:
1. Active
2. Active
3. Active
4. Active
5. Active
6. Not Active
7. Active
8. Active

Hi, could you look up FRET activity (IC50 <30 μM) BRD4(1) for each item in my list?
1. Cc1ccccc1Cn1cc(-c2c(C)noc2C)ccc1=O
2. O=C1CC(c2ccc(=O)n(Cc3ccccc3)c2)CN1 (centres unmarked)
3. Cc1noc(C)c1-c1ccc(=O)n(C(C)c2ccccn2)c1 (centres unmarked)
4. Cc1noc(C)c1-c1ccc(=O)n(Cc2ccccc2F)n1
5. C=Cc1ccc(Cn2cc(-c3c(C)noc3C)ccc2=O)cc1

a:
Active
Not Active
Active
Active
Active
